target: Cytochrome P450 2D6 (Homo sapiens, UniProt P10635)
Sequence (P10635 whole entry): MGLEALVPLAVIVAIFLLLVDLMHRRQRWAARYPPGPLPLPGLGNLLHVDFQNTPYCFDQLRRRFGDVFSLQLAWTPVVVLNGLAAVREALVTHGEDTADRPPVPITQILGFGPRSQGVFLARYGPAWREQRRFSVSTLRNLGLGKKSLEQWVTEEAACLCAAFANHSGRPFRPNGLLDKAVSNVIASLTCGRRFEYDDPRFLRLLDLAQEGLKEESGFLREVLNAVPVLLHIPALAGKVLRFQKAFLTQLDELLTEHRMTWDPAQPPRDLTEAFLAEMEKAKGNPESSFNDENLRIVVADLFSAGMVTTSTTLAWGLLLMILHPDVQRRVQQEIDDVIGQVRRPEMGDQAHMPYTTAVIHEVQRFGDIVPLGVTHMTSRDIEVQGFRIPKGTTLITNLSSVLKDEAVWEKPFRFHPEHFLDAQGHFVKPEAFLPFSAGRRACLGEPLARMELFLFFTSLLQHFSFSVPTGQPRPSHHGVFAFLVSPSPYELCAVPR

smiles-str: Cc1cn([C@H]2CCCN(S(=O)(=O)c3ccc(O)c(Oc4cccc(Cl)c4)c3)C2)c(=O)[nH]c1=O
IC50: > 20 µM

###

test system: Staphylococcus aureus; experiment: Antimicrobial activity against methicillin- and quinolone-resistant Staphylococcus aureus ARC517; assay type: functional

smiles-str: Cc1cn([C@H]2CCCN(S(=O)(=O)c3ccc(CO)c(Oc4cccc(Cl)c4)c3)C2)c(=O)[nH]c1=O
unit-string: µg/mL
qualifier-sign: =
MIC: 64
--
smiles-str: Cc1cccc(Oc2cc(S(=O)(=O)N3CCC[C@H](n4cc(C)c(=O)[nH]c4=O)C3)ccc2C(=O)O)c1
unit-string: µg/mL
qualifier-sign: >
MIC: 64
--
smiles-str: Cc1cn([C@H]2CCCN(S(=O)(=O)c3ccc(O)c(Oc4cccc(Cl)c4)c3)C2)c(=O)[nH]c1=O
unit-string: µg/mL
qualifier-sign: =
MIC: 0.5
--
smiles-str: Cc1cn([C@H]2CCCN(S(=O)(=O)c3ccc(C#N)c(Oc4cccc(Cl)c4)c3)C2)c(=O)[nH]c1=O
unit-string: µg/mL
qualifier-sign: >
MIC: 64
